- PROCEDURE TEXT: Evaluation of cytotoxicity on THP-1 cells (MTS)
- Type: cell-based, human
- DETAILS: human; roughly determined from 100, 20 and 4 µM, 72 h; read-out: CC50 interval on THP-1 cells
Let's look at some compounds and their measured CC50 at 72 h.

MOL SMILES | MEASURE NAME | REPORTED
COc1cccc(OC)c1-c1ccc2c(C(CN)c3c[nH]c4cc(-c5c(OC)cccc5OC)ccc34)c[nH]c2c1 | CC50 at 72 h | 20 to 100 µM
CC(C)Cc1ccc(-c2ccc3c(C(CN)c4c[nH]c5cc(-c6ccc(CC(C)C)cc6)ccc45)c[nH]c3c2)cc1 | CC50 at 72 h | 20 to 100 µM

## Task // CC50 at 72 h lookup, key: NCC(c1c[nH]c2cc(-c3cccc(-c4ccccc4)c3)ccc12)c1c[nH]c2cc(-c3cccc(-c4ccccc4)c3)ccc12
## Result 20 to 100 µM

====

- Tested on: THP-1 cells
- PROCEDURE TEXT: Evaluation of cytotoxicity on THP-1 cells (MTS)
- Type: cell-based, human
- DETAILS: 20 µM, 72 h, PMA-differentiated THP-1
Would you mind labelling by Cytotoxicity on THP‐1 (100, 20, 4 µM) (%)? At or over 50% is Condition met, under is Condition not met.

COMPOUND | ASSAYED TARGET | CLASS NAME
COc1cccc(OC)c1-c1ccc2c(C(CN)c3c[nH]c4cc(-c5c(OC)cccc5OC)ccc34)c[nH]c2c1 | THP-1 cells | Condition not met
NCC(c1c[nH]c2cc(-c3cccc(OCc4ccccc4)c3)ccc12)c1c[nH]c2cc(-c3cccc(OCc4ccccc4)c3)ccc12 | THP-1 cells | Condition met
CCCCCCCCCCCCCCCCOP(=O)([O-])OCC[N+](C)(C)C [Milt, miltefosine, reference compound] | THP-1 cells | Condition not met
NCC(c1c[nH]c2cc(-c3cccc(-c4ccccc4)c3)ccc12)c1c[nH]c2cc(-c3cccc(-c4ccccc4)c3)ccc12 | THP-1 cells | Condition not met
NCC(c1c[nH]c2cc(/C=C/c3ccc(Cl)cc3)ccc12)c1c[nH]c2cc(/C=C/c3ccc(Cl)cc3)ccc12 | THP-1 cells | Condition met

## Task Item NCC(c1c[nH]c2c(-c3ccccc3)cccc12)c1c[nH]c2c(-c3ccccc3)cccc12 with Cytotoxicity on THP‐1 (100, 20, 4 µM) (%) of 50% or above?
## Result Condition met

## Task Same read-out for NCC(c1c[nH]c2ccc(-c3ccccc3)cc12)c1c[nH]c2ccc(-c3ccccc3)cc12 ?
## Result Condition met

====

- System: THP-1 cells
- PROCEDURE TEXT: Evaluation of cytotoxicity on THP-1 cells (MTS)
- Type: cell-based, human
- DETAILS: 4 µM, 72 h, PMA-differentiated THP-1
MEASURE NAME: Cytotoxicity on THP‐1 (100, 20, 4 µM) (%)
Answer format: numeric, % implied, no suffix.

The following compounds have reported results that may help.
MOL SMILES | REPORTED
CC(C)(C)OC(=O)n1cccc1-c1ccc2c(C(CN)c3c[nH]c4cc(-c5cccn5C(=O)OC(C)(C)C)ccc34)c[nH]c2c1 | 22
NCC(c1c[nH]c2cc(/C=C/c3ccc(Cl)cc3)ccc12)c1c[nH]c2cc(/C=C/c3ccc(Cl)cc3)ccc12 | −32

## Task Query: Cytotoxicity on THP‐1 (100, 20, 4 µM) (%); subject: NCC(c1c[nH]c2cc(-c3cccc(Cl)c3)ccc12)c1c[nH]c2cc(-c3cccc(Cl)c3)ccc12
## Result −7

## Task Same for C=Cc1ccc(-c2ccc3c(C(CN)c4c[nH]c5cc(-c6ccc(C=C)cc6)ccc45)c[nH]c3c2)cc1
## Result −14

====

- System: THP-1 cells
- PROCEDURE TEXT: Evaluation of cytotoxicity on THP-1 cells (MTS)
- Format: cell-based, human
- DETAILS: 100 µM, 72 h, PMA-differentiated THP-1
MEASURE NAME: Cytotoxicity on THP‐1 (100, 20, 4 µM) (%)
Field format: number, assumed %, no unit text.

These recorded examples may help you get a feel for the data.
COMPOUND | REPORTED
NCC(c1c[nH]c2cc(-c3cccc(-c4ccccc4)c3)ccc12)c1c[nH]c2cc(-c3cccc(-c4ccccc4)c3)ccc12 | 77
CCCCCCCCCCCCCCCCOP(=O)([O-])OCC[N+](C)(C)C [Milt, miltefosine, reference compound] | 99
NCC(c1c[nH]c2c(-c3ccccc3)cccc12)c1c[nH]c2c(-c3ccccc3)cccc12 | 89
NCC(c1c[nH]c2cc(-c3ccccc3)ccc12)c1c[nH]c2cc(-c3ccccc3)ccc12 | 87
NCC(c1c[nH]c2cc(/C=C/c3ccc(Cl)cc3)ccc12)c1c[nH]c2cc(/C=C/c3ccc(Cl)cc3)ccc12 | 66

## Task # get_value(readout='Cytotoxicity on THP‐1 (100, 20, 4 µM) (%)', item= NCC(c1c[nH]c2ccc(-c3ccccc3)cc12)c1c[nH]c2ccc(-c3ccccc3)cc12 )
## Result 91

## Task # iterate: NCC(c1c[nH]c2cc(-c3cccc(OCc4ccccc4)c3)ccc12)c1c[nH]c2cc(-c3cccc(OCc4ccccc4)c3)ccc12
## Result 72

## Task Next record, please: COc1ccccc1-c1ccc2c(C(CN)c3c[nH]c4cc(-c5ccccc5OC)ccc34)c[nH]c2c1
## Result 86

====

- System: L. infantum MHOM/TN/80/IPT1 promastigotes
- PROCEDURE TEXT: L. infantum promastigotes viability assay (MTS)
- Type: cell-based, Leishmania infantum
- DETAILS: Leishmania infantum, 72 h, single dose 20 µM
- Description: Finally, eighteen compounds were first screened for efficacy against L. infantum MHOM/TN/80/IPT1 promastigotes at a single dose of 20 µM for 72 hours. […] Late log/stationary phase L. infantum promastigotes were resuspended in RPMI-PY medium at a density of 2.5×10^6 parasites/mL in 96-well plates (100μL/well). […] Absorbance was recorded on a Microplate Reader (Infinite® F50 Plus, Tecan) at 492 nm. […]
Below, each entry is listed with its recorded inhibition at 20 µM.
The answer is to be given in %; state only the numeric part.

## Task Tell me the measured inhibition at 20 µM of NCC(c1c[nH]c2cc(-c3cccc(Cl)c3)ccc12)c1c[nH]c2cc(-c3cccc(Cl)c3)ccc12 [3ag] , please.
## Result 93.6

## Task Now the compound NCC(c1c[nH]c2cc(-c3ccc(F)cc3)ccc12)c1c[nH]c2cc(-c3ccc(F)cc3)ccc12 [3ab]
## Result 97.1

## Task Again, but for COc1ccccc1-c1ccc2c(C(CN)c3c[nH]c4cc(-c5ccccc5OC)ccc34)c[nH]c2c1 [3ak]
## Result 96.5

## Task Try this compound next: NCC(c1c[nH]c2cc(-c3ccccc3)ccc12)c1c[nH]c2cc(-c3ccccc3)ccc12 [3aa]
## Result 96.2

## Task And what about the compound NCC(c1c[nH]c2cc(-c3cccc4[nH]ccc34)ccc12)c1c[nH]c2cc(-c3cccc4[nH]ccc34)ccc12 [3aq] ?
## Result 96.9

## Task What about this compound? NCC(c1c[nH]c2cc(/C=C/c3ccc(Cl)cc3)ccc12)c1c[nH]c2cc(/C=C/c3ccc(Cl)cc3)ccc12 [3ar]
## Result 95.1

====

Property: Cytotoxicity on THP‐1 (100, 20, 4 µM) (%); scope: individual compounds
- System: THP-1 cells
- PROCEDURE TEXT: Evaluation of cytotoxicity on THP-1 cells (MTS)
- Format: cell-based, human
- DETAILS: 20 µM, 72 h, PMA-differentiated THP-1

Worked examples, 2 compounds total:
MOL SMILES | REPORTED
CC(C)Cc1ccc(-c2ccc3c(C(CN)c4c[nH]c5cc(-c6ccc(CC(C)C)cc6)ccc45)c[nH]c3c2)cc1 | 1%
COc1ccc(-c2ccc3c(C(CN)c4c[nH]c5cc(-c6ccc(OC)cc6)ccc45)c[nH]c3c2)cc1 | 96%

## Task Name the recorded Cytotoxicity on THP‐1 (100, 20, 4 µM) (%) for NCC(c1c[nH]c2cc(-c3ccc(F)cc3)ccc12)c1c[nH]c2cc(-c3ccc(F)cc3)ccc12 .
## Result 97%

====

- System: THP-1 cells
- PROCEDURE TEXT: Evaluation of cytotoxicity on THP-1 cells (MTS)
- Assay type: cell-based, human
- DETAILS: 100 µM, 72 h, PMA-differentiated THP-1
Entries and their Cytotoxicity on THP‐1 (100, 20, 4 µM) (%) values follow.
Write it as a number; the unit % goes unstated.

Example entries and their recorded answers appear below.
COMPOUND | REPORTED
COc1cccc(OC)c1-c1ccc2c(C(CN)c3c[nH]c4cc(-c5c(OC)cccc5OC)ccc34)c[nH]c2c1 [3al] | 84
NCC(c1c[nH]c2cc(-c3cccc(Cl)c3)ccc12)c1c[nH]c2cc(-c3cccc(Cl)c3)ccc12 [3ag] | 84
CC(C)Cc1ccc(-c2ccc3c(C(CN)c4c[nH]c5cc(-c6ccc(CC(C)C)cc6)ccc45)c[nH]c3c2)cc1 [3ac] | 88

Please look at the following compound next.
## Task # input compound: COc1ccc(-c2ccc3c(C(CN)c4c[nH]c5cc(-c6ccc(OC)cc6)ccc45)c[nH]c3c2)cc1 [3ad] ; wanted: its Cytotoxicity on THP‐1 (100, 20, 4 µM) (%)
## Result 86
